The reported measurements were obtained from ChEMBL document CHEMBL1131584.

Values of Ki reported for UniProt P07858 appear below.

compound: CC(C)C[C@H](NC(=O)OCc1ccccc1)C(=O)N[C@@H]1CN(C(=O)[C@H](CC(C)C)NC(=O)OCc2ccccc2)C[C@H]1O
Ki: > 1 µM

Give UniProt P07858 Ki for CC(C)CCCN1CCC(NC(=O)[C@H](CC(C)C)NC(=O)OCc2ccccc2)C(=O)C1 (some centres not stated) > 1 µM

###

A short record of Ki observed with Procathepsin L (Homo sapiens) follows.
Sequence (P07711 whole entry): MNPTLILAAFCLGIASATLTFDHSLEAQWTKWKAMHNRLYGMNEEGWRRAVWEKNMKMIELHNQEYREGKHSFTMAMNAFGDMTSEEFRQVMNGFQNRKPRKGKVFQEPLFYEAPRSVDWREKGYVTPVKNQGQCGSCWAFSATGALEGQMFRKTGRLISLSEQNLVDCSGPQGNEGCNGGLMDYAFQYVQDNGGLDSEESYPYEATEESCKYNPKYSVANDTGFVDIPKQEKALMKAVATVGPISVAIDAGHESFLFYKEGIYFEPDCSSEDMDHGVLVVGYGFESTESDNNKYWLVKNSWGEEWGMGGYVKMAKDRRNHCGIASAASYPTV

Below: 3 compounds and their reported Ki.
compound: CC(C)CCCN1CCC(NC(=O)[C@H](CC(C)C)NC(=O)OCc2ccccc2)C(=O)C1 (some centres undefined)
Ki: > 1 µM
//
compound: CC(C)C[C@H](NC(=O)OCc1ccccc1)C(=O)NC1CN(C(=O)c2ccc(Oc3ccccc3)cc2)CC1=O (some centres undefined)
Ki: 0.055 µM
//
compound: CC(C)C[C@H](NC(=O)OCc1ccccc1)C(=O)NC1CCN(S(=O)(=O)c2ccc(Oc3ccccc3)cc2)CC1=O (some centres undefined)
Ki: > 1 µM

Let us examine a further case.
Entry `CC(C)C[C@H](NC(=O)OCc1ccccc1)C(=O)N[C@@H]1CN(C(=O)[C@H](CC(C)C)NC(=O)OCc2ccccc2)C[C@H]1O` has what Ki? > 1 µM

###

target: Cathepsin K (Homo sapiens)
Sequence (P43235 whole entry): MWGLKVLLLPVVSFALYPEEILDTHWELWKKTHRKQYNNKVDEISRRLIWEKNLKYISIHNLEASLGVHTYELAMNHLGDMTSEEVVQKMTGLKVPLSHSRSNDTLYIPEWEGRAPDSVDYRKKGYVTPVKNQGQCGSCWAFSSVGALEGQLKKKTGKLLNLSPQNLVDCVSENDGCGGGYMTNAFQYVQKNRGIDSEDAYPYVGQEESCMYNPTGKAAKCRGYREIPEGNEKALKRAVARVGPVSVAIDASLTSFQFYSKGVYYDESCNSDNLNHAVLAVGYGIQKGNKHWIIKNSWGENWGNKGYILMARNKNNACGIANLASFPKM
pKi: −log10 of the molar value.
measured_metric: pKi

Solved entries:
molecule: CC(C)C[C@H](NC(=O)OCc1ccccc1)C(=O)N[C@@H]1CCC[C@@H](NC(=O)[C@H](CC(C)C)NC(=O)OCc2ccccc2)C1=O
tested_system: Cathepsin K (Homo sapiens)
pKi: 4.82
//
molecule: CC(C)CCCN1CCC(NC(=O)[C@H](CC(C)C)NC(=O)OCc2ccccc2)C(=O)C1 (stereo partly specified)
tested_system: Cathepsin K (Homo sapiens)
pKi: 7.60
//
molecule: CC(C)C[C@H](NC(=O)OCc1ccccc1)C(=O)N[C@@H]1CCN(C(=O)[C@H](CC(C)C)NC(=O)OCc2ccccc2)C[C@H]1O
tested_system: Cathepsin K (Homo sapiens)
pKi: 5.09
//
molecule: CC(C)C[C@H](NC(=O)OCc1ccccc1)C(=O)NC1CN(C(=O)[C@H](CC(C)C)NC(=O)OCc2ccccc2)CC1=O (stereo partly specified)
tested_system: Cathepsin K (Homo sapiens)
pKi: 8.64

[P] CC(C)C[C@H](NC(=O)OCc1ccccc1)C(=O)NC1CCN(C(=O)[C@H](CC(C)C)NC(=O)OCc2ccccc2)CC1=O (stereo partly specified)
[Q] CC(C)C[C@H](NC(=O)OCc1ccccc1)C(=O)N1CC(=O)C(NC(=O)c2ccc(Oc3ccccc3)cc2)C1 (stereo partly specified)
Between the entries labeled P and Q , whose measured pKi is lower? The response must carry the label of the picked entry. Q
(Q: 6.05, P: 8.59)
